biological target: alpha-synuclein fibrils, P37840; experiment: SPR, captured mAb; settings: remark: other sources report otherwise
pKd: −log10 of the molar value.
assay metric: pKd

>>> quantitative_result("ACI-7088-4303A1-Ab1 (antibody, V domains shown) VH: EVQLQQSGAELVRPGASVKLSCTASGFNIKDDYMHWVKQRPEQGLEWIGWIDPENGDSEYASKFQGKATMTADTSSNTAYLQLSSLTSEDTAVYYCKTWGTAQALFPYWGQGTLVTVSA VL: DIVMTQSQKFMSTSVGDRVSITCKASQNVGTSVGWYQQKAGQSPKLLIHSASNRYTGVPDRFTGSGSGTDFTLTINNMQSEDLADYFCQQYRSYPLTFGAGTKLELK")
7.87
>>> quantitative_result("ACI-7079-2501B11-Ab3 (antibody, V domains shown) VH: QVQLQQSGPELVKPGASVKISCKASGYAFSSFWMNWMKQRPGKGLEWIGRIYPGDGDAHYNGEFKGRATLTADKSSSTAYMQLSSLTSEDSAVYFCARKGDFYGSNYDYWGQGTTLTVSS VL: QAVVTQESALTTSPGETVTLTCRSSTGAVTTSNYANWVQEKPDHLFTGLIGGTNNRAPGVPARFSGSLIGDKAALTITGAQTEDEAIYFCALWYSNHLVFGGGTRLTVL")
7.50
